- Tested on: biotinyl-Leu-oxazolone
- TEST NAME: self-aminoacylation, catalytic enhancement (BLO) (fold over background); higher = more active; k-Seq, kA / k0A0; sequences stand for … in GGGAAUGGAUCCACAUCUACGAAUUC…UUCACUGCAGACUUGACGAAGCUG
This sample holds only a part of the variants without activity.
Please enter T where self-aminoacylation is greater than or equal to 4, and F where it is lower.

Study these solved cases before continuing.
AAGUGUGCUACUAGUCGCAAG [Fam3.1 aminoacylation ribozyme variant] : F
AUUGCCCUAGUCAUCGAGUGA [Fam2.1 aminoacylation ribozyme variant] : T
AUUCACCUAUGUCAUCCGGUG [Fam2.2 aminoacylation ribozyme variant] : T
AAAUUUGCUAAUAGUCGCAGG [Fam3.1 aminoacylation ribozyme variant] : F
CCAGACUUCAAGCAAUCGGUA [Fam1B.1 aminoacylation ribozyme variant] : F

stdin: Determine whether this sequence has self-aminoacylation no lower than 4: AUUCUCCAAGGUCAUCGGGUG [Fam2.2 aminoacylation ribozyme variant]
stdout: T

stdin: Determine whether this sequence has self-aminoacylation no lower than 4: CUACUUCAAACAAUCAGUCUU [Fam1A.1 aminoacylation ribozyme variant]
stdout: F

stdin: Determine whether this sequence has self-aminoacylation no lower than 4: AUUAGCCUAGUCAUCGAGUGA [Fam2.1 aminoacylation ribozyme variant]
stdout: F

stdin: Determine whether this sequence has self-aminoacylation no lower than 4: CUACUUCAAACAAUCGGUCAA [Fam1A.1 aminoacylation ribozyme variant]
stdout: F

stdin: Determine whether this sequence has self-aminoacylation no lower than 4: AUUCACCUAGGACAACGGGUG [Fam2.2 aminoacylation ribozyme variant]
stdout: F
